The following compounds are listed with their measured pIC50 values.
Target: Myeloperoxidase (Homo sapiens)
Sequence (P05164 165-273 limits assumed): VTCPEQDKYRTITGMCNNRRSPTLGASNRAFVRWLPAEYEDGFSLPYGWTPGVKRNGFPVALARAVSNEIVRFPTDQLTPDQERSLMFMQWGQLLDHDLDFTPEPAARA
Sequence (P05164 279-745 limits assumed): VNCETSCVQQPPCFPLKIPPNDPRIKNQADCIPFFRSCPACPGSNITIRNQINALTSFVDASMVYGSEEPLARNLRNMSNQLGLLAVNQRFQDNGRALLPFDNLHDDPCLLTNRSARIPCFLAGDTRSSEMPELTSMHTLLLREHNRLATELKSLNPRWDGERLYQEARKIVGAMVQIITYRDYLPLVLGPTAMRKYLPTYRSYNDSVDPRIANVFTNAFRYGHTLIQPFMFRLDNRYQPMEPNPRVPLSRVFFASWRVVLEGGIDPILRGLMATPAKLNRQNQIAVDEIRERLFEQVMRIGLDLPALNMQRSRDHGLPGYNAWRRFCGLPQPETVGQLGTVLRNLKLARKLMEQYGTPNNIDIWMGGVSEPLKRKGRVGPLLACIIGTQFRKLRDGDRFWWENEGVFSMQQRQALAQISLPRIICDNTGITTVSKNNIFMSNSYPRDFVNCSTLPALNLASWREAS
Experiment: Inhibition of recombinant MPO (unknown origin) assessed as reduction in LDL oxidation in presence of H2O2 and HCl after 5 mins by ELISA
On this scale, pIC50 is minus log10 of a concentration expressed in M (mol/L).

Some compounds with recorded pIC50:
{"columns": ["Compound", "Measured Target", "pIC50"],
 "data": [
  ["Fc1ccc2[nH]c([C@@H]3CCN(CC4NC=CN4)C3)nc2c1", "Myeloperoxidase (Homo sapiens)", 6.92],
  ["Cc1cccc(Nc2ccccc2C(=O)O)c1C", "Myeloperoxidase (Homo sapiens)", 5.66],
  ["NNc1nncc2ccccc12 [HYDRALAZINE]", "Myeloperoxidase (Homo sapiens)", 5.63],
  ["O=c1c(O)c(-c2ccc(O)c(O)c2)oc2cc(O)cc(O)c12", "Myeloperoxidase (Homo sapiens)", 5.51]
]}

What the record says about COc1ccc2c(C)nc(NC(=N)N)nc2c1 : pIC50 is 7.05
